EXPERIMENTAL_DETAILS: Passive permeability of the compound at 500 uM after 5 hrs by PAMPA
Format: ADME
Non-standard residues stand in square brackets, D forms with d. Residues, ends and D or L forms follow the SMILES beside them. *: point of attachment. NMeF = CN[C@@H](Cc1ccccc1)C(=O)O; NMeL = CN[C@@H](CC(C)C)C(=O)O; NHPhenethyl = c1ccc(CCN*)cc1; NMeV = CN[C@H](C(=O)O)C(C)C
ENDPOINT: permeability

CC(C)C[C@H](NC(=O)[C@@H](NC(=O)[C@@H](NC(=O)[C@@H](N)C(C)C)C(C)C)C(C)C)C(=O)NCCc1ccccc1 (H-VVVL-NHPhenethyl); Impermeable
CN[C@H](C(=O)N(C)[C@H](C(=O)N(C)[C@H](C(=O)N(C)[C@@H](CC(C)C)C(=O)NCCc1ccccc1)C(C)C)C(C)C)C(C)C (H-[NMeV][NMeV][NMeV][NMeL]-NHPhenethyl); Permeable
CC(C)[C@H](N)C(=O)N[C@H](C(=O)N[C@H](C(=O)N[C@@H](Cc1ccccc1)C(=O)NCCc1ccccc1)C(C)C)C(C)C (H-VVVF-NHPhenethyl); Impermeable
CN[C@H](C(=O)N(C)[C@H](C(=O)N(C)[C@H](C(=O)N(C)[C@@H](Cc1ccccc1)C(=O)NCCc1ccccc1)C(C)C)C(C)C)C(C)C (H-[NMeV][NMeV][NMeV][NMeF]-NHPhenethyl); Permeable
